Target: T1, human ROR1 (full-length, on the cell surface) (human, UniProt Q01973 30-937)
T1 construct: whole, on cells; the tumour cell lines carry their own ROR1; also called Ba/F3-ROR1 cells; Jeko-1
T1 sequence (Q01973 30-937): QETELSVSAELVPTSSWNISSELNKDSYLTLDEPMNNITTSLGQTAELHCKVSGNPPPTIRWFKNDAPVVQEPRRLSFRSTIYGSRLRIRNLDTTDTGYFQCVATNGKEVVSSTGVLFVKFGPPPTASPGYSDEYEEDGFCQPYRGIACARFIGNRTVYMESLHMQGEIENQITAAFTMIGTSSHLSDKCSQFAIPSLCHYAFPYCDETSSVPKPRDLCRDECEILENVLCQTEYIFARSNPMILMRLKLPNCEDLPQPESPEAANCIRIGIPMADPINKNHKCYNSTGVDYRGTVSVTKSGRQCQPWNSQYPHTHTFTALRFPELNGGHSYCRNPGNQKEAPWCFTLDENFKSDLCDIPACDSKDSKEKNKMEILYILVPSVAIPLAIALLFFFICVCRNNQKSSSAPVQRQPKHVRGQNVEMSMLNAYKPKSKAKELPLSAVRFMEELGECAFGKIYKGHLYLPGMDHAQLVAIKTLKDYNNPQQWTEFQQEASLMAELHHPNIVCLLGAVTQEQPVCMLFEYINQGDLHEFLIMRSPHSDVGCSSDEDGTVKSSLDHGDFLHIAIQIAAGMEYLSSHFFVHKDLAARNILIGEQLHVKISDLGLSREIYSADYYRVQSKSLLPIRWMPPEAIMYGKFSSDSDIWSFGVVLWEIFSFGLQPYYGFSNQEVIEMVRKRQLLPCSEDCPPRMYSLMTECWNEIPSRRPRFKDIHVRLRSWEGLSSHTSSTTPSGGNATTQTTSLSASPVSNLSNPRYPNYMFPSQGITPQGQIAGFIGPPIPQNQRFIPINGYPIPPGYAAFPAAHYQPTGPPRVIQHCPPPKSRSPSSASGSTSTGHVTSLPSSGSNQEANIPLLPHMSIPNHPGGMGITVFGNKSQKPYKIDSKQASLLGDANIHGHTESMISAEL
Test: flow cytometry, HT-29 cells
Please respond with reported pEC50 for every item in the list.
Convention used: pEC50 is expressed as -log10 of the molar concentration.

GET /values?readout=pEC50&item= 38F8-Hu27 (antibody, human IgG1, kappa, V domains shown, humanized, human IgG1 / kappa) VH: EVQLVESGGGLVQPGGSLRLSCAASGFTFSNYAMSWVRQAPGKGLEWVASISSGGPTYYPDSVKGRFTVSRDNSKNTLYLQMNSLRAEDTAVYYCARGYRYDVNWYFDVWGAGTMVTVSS VL: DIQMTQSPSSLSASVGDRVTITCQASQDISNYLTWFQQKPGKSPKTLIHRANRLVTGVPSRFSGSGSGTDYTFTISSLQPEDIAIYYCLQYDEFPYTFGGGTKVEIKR 9.60

Would you mind doing 38F8-Hu37 (antibody, human IgG1, kappa, V domains shown, humanized, human IgG1 / kappa) VH: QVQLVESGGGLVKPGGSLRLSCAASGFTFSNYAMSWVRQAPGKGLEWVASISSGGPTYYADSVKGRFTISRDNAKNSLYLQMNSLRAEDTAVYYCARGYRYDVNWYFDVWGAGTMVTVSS VL: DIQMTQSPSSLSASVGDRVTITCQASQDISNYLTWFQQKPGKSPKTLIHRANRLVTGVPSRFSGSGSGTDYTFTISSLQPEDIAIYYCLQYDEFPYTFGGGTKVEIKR as well? 9.36
